# System: Plasmodium falciparum
# assay_comment: Confirmatory screen in NF54 pLDH assay, in single point, at 2uM, 72h
# Format: functional, Erythrocyte
# setup_conditions: timepoint 72 hour
About 410 (8.5%) of roughly 4,800 compounds showed an effect of 50% or more. The list comes from a sample in which strong results are over-represented; it also holds close analogues and randomly drawn compounds.
Reported % Inhibition values follow for various compounds
Write the answer as a number in %, unit excluded.

Before answering, review these 3 worked examples.
Cc1ccc(F)cc1NC(=O)N1CCC12CCC2 ... 11
O=C(Nc1cccnc1)c1ccc(-c2ccc(Cl)c(Cl)c2)o1 ... 89
C[C@]1(C(=O)O)Nc2ccccc2-c2nc(=O)c(-c3ccccc3)nn21 ... 9

// C[C@]1(CCc2ccc(O)cc2)Nc2ccccc2-c2nc(=O)c(-c3ccc(F)cc3)nn21 : % Inhibition value = -12

% Inhibition in this record for O=C(CCC(=O)Nc1cccnc1)NCc1ccc2c(c1)OCO2 : 6
